Just for reference, paper PMC10786891 is where these values come from.

target-or-test-system: T1, EsCas13d, nuclease-dead (Eubacterium siraeum, UniProt B0MS50, R295A;H300A;R849A;H854A)
T1 sequence: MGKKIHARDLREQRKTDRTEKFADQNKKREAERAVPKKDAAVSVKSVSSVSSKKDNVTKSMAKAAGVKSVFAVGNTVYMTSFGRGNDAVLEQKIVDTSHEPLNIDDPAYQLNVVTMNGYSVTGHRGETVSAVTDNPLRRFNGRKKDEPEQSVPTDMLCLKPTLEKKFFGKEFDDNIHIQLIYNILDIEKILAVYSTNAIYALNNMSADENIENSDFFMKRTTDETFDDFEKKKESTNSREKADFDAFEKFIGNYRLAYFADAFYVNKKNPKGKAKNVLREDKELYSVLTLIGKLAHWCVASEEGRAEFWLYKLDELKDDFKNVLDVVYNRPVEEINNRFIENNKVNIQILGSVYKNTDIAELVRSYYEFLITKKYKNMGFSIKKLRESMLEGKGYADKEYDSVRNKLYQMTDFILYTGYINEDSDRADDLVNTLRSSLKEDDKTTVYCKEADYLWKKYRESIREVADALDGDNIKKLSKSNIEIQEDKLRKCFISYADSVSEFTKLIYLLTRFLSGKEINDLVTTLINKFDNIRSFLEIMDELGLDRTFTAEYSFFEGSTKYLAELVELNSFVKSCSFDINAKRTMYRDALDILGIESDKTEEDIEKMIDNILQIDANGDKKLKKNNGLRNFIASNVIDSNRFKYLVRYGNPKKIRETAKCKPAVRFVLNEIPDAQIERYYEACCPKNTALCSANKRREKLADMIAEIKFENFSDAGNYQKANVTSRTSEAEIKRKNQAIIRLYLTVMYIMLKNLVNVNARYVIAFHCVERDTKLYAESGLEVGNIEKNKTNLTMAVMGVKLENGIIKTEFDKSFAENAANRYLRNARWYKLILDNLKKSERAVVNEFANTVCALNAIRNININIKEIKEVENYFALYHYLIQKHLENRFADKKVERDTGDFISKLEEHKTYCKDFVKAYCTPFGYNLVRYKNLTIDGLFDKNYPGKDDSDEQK
test-details: crRNA (strand 1, pre-loaded); Mg2+; 40 mM Tris-HCl pH 7.5, 150 mM NaCl, 6 mM MgCl2, 1 mM DTT, 0.1% Tween-20, 0.2 mg/ml BSA; 25 C; 10 min per concentration, then washed
measurement-context: tags: His6-TwinStrep-SUMO cleaved; N-terminal SNAP kept (SNAP-Surface 488); label: 3' end held by stalled T7 RNA polymerase
pKd: −log10 of the molar value.
value-type: pKd

>  <binder>
target 2 MT 5'PFS GGU 3'PFS AAC (mixed) RNA 1: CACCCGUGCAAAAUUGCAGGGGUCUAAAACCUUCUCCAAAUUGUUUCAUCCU RNA 2: GGGAAUGGAUCCACAUCUACGAAUUCGGUAGGAUGAAACAAUUUGGAGAAGAACAGAUCGGAAGAGCACACGU

>  <experimental-value>
7.87

$$$$
>  <binder>
target 3 insU 3' of 4,insG 3' of 2 (mixed) RNA 1: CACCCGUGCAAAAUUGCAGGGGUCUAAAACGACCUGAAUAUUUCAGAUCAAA RNA 2: GGGAAUGGAUCCACAUCUACGAAUUCGUUUUUGAUCUGAAAUAUUCAGUGUGCUGCAGAUCGGAAGAGCACACGU

>  <experimental-value>
7.71

$$$$
